// provenance: the supplement of paper PMC10567573

Give protein stability index for every item shown.
B1: LOXL2 (parent)
chain: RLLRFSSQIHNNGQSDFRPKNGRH

variants of: B1; assay: protein stability index of a GFP-peptide fusion (GPS, HEK-293T) (PSI 1-6); higher = more stable; settings: c terminus: a fixed tail appended;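 note: lentivirally expressed fusions sorted by FACS into six bins by GFP to DsRed ratio, PSI derived from sequencing read proportions per bin multiplied by bin number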
Form field (numeric): enter value without unit.

Identify measured protein stability index associated with "S6G" 2.64

Identify measured protein stability index associated with "G22Q" 2.89

Identify measured protein stability index associated with "I9L" 2.12

Identify measured protein stability index associated with "N21S" 2.33

Identify measured protein stability index associated with "P19Q" 2.7

Identify measured protein stability index associated with "R18W" 3.03

Identify measured protein stability index associated with "G13P" 2.62

Identify measured protein stability index associated with "Q14A" 2.55

Identify measured protein stability index associated with "G13W" 2.56

Identify measured protein stability index associated with "N12H" 2.59

Identify measured protein stability index associated with "G22M" 2.27
